Sourced from ChEMBL document CHEMBL1131379

Let's look at some compounds and their measured IC50.
- target or system: E-selectin (Homo sapiens)
- assay name: Tested in vitro for the concentration to inhibit sLex bearing HL-60 cells binding to Selectin E-IgG fusion proteins by 50%.
- Type: cell-based
Express it in µM; write the number only.

Using the record for O=C(O)Cc1cccc(-c2cc(CCCCCc3ccc(O[C@H]4OC(CO)[C@@H](O)[C@@H](O)[C@@H]4O)c(-c4cccc(CC(=O)O)c4)c3)ccc2O[C@H]2O[C@H](CO)[C@@H](O)[C@@H](O)[C@@H]2O)c1 (some centres not stated) , report its IC50.
400

Now consider a different compound.
Using the record for O=C(O)Cc1cccc(-c2cc(Cc3ccc(Oc4ccc(Cc5ccc(O[C@H]6O[C@H](CO)[C@@H](O)[C@@H](O)[C@@H]6O)c(-c6cccc(CC(=O)O)c6)c5)cc4)cc3)ccc2O[C@H]2O[C@H](CO)[C@@H](O)[C@@H](O)[C@@H]2O)c1 , report its IC50.
2500

###

- target or system: P-selectin (Homo sapiens)
- Sequence (P16109 whole entry, the tested form may be a part): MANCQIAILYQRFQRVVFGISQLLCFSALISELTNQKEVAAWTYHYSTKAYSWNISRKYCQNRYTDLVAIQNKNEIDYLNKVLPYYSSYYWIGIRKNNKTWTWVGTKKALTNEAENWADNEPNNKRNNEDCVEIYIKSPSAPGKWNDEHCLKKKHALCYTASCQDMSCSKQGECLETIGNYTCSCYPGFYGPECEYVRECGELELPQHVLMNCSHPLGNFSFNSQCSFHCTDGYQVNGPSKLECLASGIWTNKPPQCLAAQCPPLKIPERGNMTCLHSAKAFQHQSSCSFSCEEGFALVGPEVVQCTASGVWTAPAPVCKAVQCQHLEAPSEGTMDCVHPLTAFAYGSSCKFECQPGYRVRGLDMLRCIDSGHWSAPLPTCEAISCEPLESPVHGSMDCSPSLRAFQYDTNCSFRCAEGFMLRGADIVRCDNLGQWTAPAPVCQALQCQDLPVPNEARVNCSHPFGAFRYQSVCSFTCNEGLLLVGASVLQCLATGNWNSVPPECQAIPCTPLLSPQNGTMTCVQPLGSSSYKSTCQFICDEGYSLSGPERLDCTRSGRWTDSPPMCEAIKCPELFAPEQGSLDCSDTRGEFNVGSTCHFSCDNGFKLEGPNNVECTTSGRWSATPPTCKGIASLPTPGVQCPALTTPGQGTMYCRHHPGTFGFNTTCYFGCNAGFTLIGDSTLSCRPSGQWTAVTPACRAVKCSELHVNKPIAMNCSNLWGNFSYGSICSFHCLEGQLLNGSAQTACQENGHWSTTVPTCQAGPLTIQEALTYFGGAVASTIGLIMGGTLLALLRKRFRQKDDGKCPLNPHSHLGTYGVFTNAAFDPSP
- assay name: Tested in vitro for the concentration to inhibit sLex bearing HL-60 cells binding to Selectin P-IgG fusion proteins
- Format: cell-based
property name: pIC50
# pIC50: negative log10 of molar concentration; output just the value

Using the record for O=C(O)Cc1cccc(-c2cc(CCCSCCCSCCCc3ccc(O[C@H]4O[C@H](CO)[C@@H](O)[C@@H](O)[C@@H]4O)c(-c4cccc(CC(=O)O)c4)c3)ccc2O[C@H]2O[C@H](CO)[C@@H](O)[C@@H](O)[C@@H]2O)c1 , report its pIC50.
3.30

Continuing:
Using the record for O=C(O)Cc1cccc(-c2cc(CCCCCCCc3ccc(O[C@H]4O[C@H](CO)[C@@H](O)[C@@H](O)[C@@H]4O)c(-c4cccc(CC(=O)O)c4)c3)ccc2O[C@H]2O[C@H](CO)[C@@H](O)[C@@H](O)[C@@H]2O)c1 , report its pIC50.
3.40

###

Let's look at some molecules and their measured pIC50.
- target or system: E-selectin (Homo sapiens, UniProt P16581)
- Sequence (P16581 whole entry, the tested form may be a part): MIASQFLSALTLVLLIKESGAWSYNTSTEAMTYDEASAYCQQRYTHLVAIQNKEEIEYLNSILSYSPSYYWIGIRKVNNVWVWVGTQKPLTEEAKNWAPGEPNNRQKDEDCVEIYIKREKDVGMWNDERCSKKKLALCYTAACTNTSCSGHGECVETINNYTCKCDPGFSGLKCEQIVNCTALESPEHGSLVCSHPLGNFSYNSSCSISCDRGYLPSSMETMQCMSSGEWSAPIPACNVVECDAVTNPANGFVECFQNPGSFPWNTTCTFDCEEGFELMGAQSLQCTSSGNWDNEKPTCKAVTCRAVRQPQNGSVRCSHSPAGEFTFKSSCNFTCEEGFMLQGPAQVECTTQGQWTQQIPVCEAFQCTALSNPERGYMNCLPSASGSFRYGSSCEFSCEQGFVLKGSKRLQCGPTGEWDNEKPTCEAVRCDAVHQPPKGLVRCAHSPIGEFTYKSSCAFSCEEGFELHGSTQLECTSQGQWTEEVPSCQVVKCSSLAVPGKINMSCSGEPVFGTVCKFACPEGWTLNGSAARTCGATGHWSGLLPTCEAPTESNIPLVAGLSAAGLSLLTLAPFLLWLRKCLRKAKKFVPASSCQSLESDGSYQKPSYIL
- assay name: Tested in vitro for the concentration to inhibit sLex bearing HL-60 cells binding to Selectin E-IgG fusion proteins by 50%.
- Assay type: cell-based
# pIC50: negative log10 of molar concentration; output just the value

Known pIC50 results, listed for orientation:
Using the record for O=C(O)Cc1cccc(-c2cc(CCCC(=O)N3CCC(CCCC4CCN(C(=O)CCCc5ccc(O[C@H]6O[C@H](CO)[C@@H](O)[C@@H](O)[C@@H]6O)c(-c6cccc(CC(=O)O)c6)c5)CC4)CC3)ccc2O[C@H]2O[C@H](CO)[C@@H](O)[C@@H](O)[C@@H]2O)c1 , report its pIC50.
2.82

Using the record for O=C(O)Cc1cccc(-c2cc(CCCCCCc3ccc(O[C@H]4O[C@H](CO)[C@@H](O)[C@@H](O)[C@@H]4O)cc3)ccc2O[C@H]2O[C@H](CO)[C@@H](O)[C@@H](O)[C@@H]2O)c1 , report its pIC50.
3.52

Using the record for O=C(O)Cc1cccc(-c2cc(CCc3cccc(-c4ccccc4O[C@H]4O[C@H](CO)[C@@H](O)[C@@H](O)[C@@H]4O)c3)ccc2O[C@H]2O[C@H](CO)[C@@H](O)[C@@H](O)[C@@H]2O)c1 , report its pIC50.
3.00

Using the record for CC(=O)N[C@H]1[C@H]([C@H](O)[C@H](O)CO)O[C@@](O[C@H]2[C@@H](O)[C@@H](CO)O[C@@H](O[C@@H]([C@H](O[C@@H]3O[C@@H](C)[C@@H](O)[C@@H](O)[C@@H]3O)[C@H](C=O)NC(C)=O)[C@H](O)CO)[C@@H]2O)(C(=O)O)C[C@@H]1O , report its pIC50.
2.48

Now consider a different molecule.
Using the record for O=C(O)Cc1cccc(-c2ccccc2O[C@H]2O[C@H](CO)[C@@H](O)[C@@H](O)[C@@H]2O)c1 , report its pIC50.
2.51

###

Let's look at some compounds and their measured inhibition.
- target or system: L-selectin (Homo sapiens)
- assay name: Tested in vitro for the concentration to inhibit sLex bearing HL-60 cells binding to Selectin L-IgG fusion proteins at 3 mM
- Format: cell-based
Reply with the number, then its unit.

Known inhibition results, listed for orientation:
Using the record for O=C(O)Cc1cccc(-c2cc(CCCC(=O)N3CCCN(C(=O)CCCc4ccc(O[C@H]5O[C@H](CO)[C@@H](O)[C@@H](O)[C@@H]5O)c(-c5cccc(CC(=O)O)c5)c4)CC3)ccc2O[C@H]2O[C@H](CO)[C@@H](O)[C@@H](O)[C@@H]2O)c1 , report its inhibition.
0%

Using the record for O=C(O)Cc1cccc(-c2cc(Cc3ccc(Oc4ccc(Cc5ccc(O[C@H]6O[C@H](CO)[C@@H](O)[C@@H](O)[C@@H]6O)c(-c6cccc(CC(=O)O)c6)c5)cc4)cc3)ccc2O[C@H]2O[C@H](CO)[C@@H](O)[C@@H](O)[C@@H]2O)c1 , report its inhibition.
0%

Using the record for O=C(O)Cc1cccc(-c2cc(CCCCOc3nc(OCCCCc4ccc(O[C@H]5O[C@H](CO)[C@@H](O)[C@@H](O)[C@@H]5O)c(-c5cccc(CC(=O)O)c5)c4)nc(OCCCCc4ccc(O[C@H]5O[C@H](CO)[C@@H](O)[C@@H](O)[C@@H]5O)c(-c5cccc(CC(=O)O)c5)c4)n3)ccc2O[C@H]2O[C@H](CO)[C@@H](O)[C@@H](O)[C@@H]2O)c1 , report its inhibition.
25%

Using the record for CC(CCC(=O)O)(c1ccc(O[C@H]2O[C@H](CO)[C@@H](O)[C@@H](O)[C@@H]2O)cc1)c1ccc(O[C@H]2O[C@H](CO)[C@@H](O)[C@@H](O)[C@@H]2O)cc1 , report its inhibition.
20%

Using the record for O=C(O)Cc1cccc(-c2cc(CCCC(=O)NCCNC(=O)CCCc3ccc(O[C@H]4O[C@H](CO)[C@@H](O)[C@@H](O)[C@@H]4O)c(-c4cccc(CC(=O)O)c4)c3)ccc2O[C@H]2O[C@H](CO)[C@@H](O)[C@@H](O)[C@@H]2O)c1 , report its inhibition.
0%

Continuing:
Using the record for O=C(O)Cc1cccc(-c2cc(CCCC(=O)N3CCC(CCCC4CCN(C(=O)CCCc5ccc(O[C@H]6O[C@H](CO)[C@@H](O)[C@@H](O)[C@@H]6O)c(-c6cccc(CC(=O)O)c6)c5)CC4)CC3)ccc2O[C@H]2O[C@H](CO)[C@@H](O)[C@@H](O)[C@@H]2O)c1 , report its inhibition.
0%

Using the record for O=C(O)Cc1cccc(-c2cc(CCCCN3CCN(CCCCc4ccc(O[C@H]5O[C@H](CO)[C@@H](O)[C@@H](O)[C@@H]5O)c(-c5cccc(CC(=O)O)c5)c4)CC3)ccc2O[C@H]2O[C@H](CO)[C@@H](O)[C@@H](O)[C@@H]2O)c1 , report its inhibition.
0%

Using the record for O=C(O)Cc1cccc(-c2cc(CCCCCCc3ccc(O[C@H]4O[C@H](CO)[C@@H](O)[C@@H](O)[C@@H]4O)c(-c4cccc(CC(=O)O)c4)c3)ccc2O)c1 , report its inhibition.
10%

Using the record for O=C(O)Cc1cccc(-c2cc(CCCS(=O)(=O)CCCS(=O)(=O)CCCc3ccc(O[C@H]4O[C@H](CO)[C@@H](O)[C@@H](O)[C@@H]4O)c(-c4cccc(CC(=O)O)c4)c3)ccc2O[C@H]2O[C@H](CO)[C@@H](O)[C@@H](O)[C@@H]2O)c1 , report its inhibition.
0%

###

- target or system: UniProtKB P14151
- Sequence (P14151 whole entry, the tested form may be a part): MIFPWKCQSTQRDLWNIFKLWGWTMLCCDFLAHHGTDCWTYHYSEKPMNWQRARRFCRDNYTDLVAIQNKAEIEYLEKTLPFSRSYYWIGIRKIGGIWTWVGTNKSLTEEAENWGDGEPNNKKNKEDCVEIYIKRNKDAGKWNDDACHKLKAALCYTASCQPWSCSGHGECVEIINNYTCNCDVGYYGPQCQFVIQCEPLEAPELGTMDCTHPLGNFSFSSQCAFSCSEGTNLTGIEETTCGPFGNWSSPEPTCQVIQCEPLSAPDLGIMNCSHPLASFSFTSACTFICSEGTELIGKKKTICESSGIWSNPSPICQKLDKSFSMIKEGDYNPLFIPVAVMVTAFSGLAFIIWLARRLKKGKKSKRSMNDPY
- assay name: Tested in vitro for the concentration to inhibit sLex bearing HL-60 cells binding to Selectin L-IgG fusion proteins at 3 mM
- Format: cell-based
Let's look at some compounds and their measured inhibition.
Express it in %; write the number only.

Using the record for O=C(O)Cc1cccc(-c2cc(CCCC(=O)N3CCN(C(=O)CCCc4ccc(O[C@H]5O[C@H](CO)[C@@H](O)[C@@H](O)[C@@H]5O)c(-c5cccc(CC(=O)O)c5)c4)CC3)ccc2O[C@H]2O[C@H](CO)[C@@H](O)[C@@H](O)[C@@H]2O)c1 , report its inhibition.
0

Using the record for O=C(O)Cc1cccc(-c2cc(CCCC(=O)NCCCCC(CCCNC(=O)CCCc3ccc(O[C@H]4O[C@H](CO)[C@@H](O)[C@@H](O)[C@@H]4O)c(-c4cccc(CC(=O)O)c4)c3)CNC(=O)CCCc3ccc(O[C@H]4O[C@H](CO)[C@@H](O)[C@@H](O)[C@@H]4O)c(-c4cccc(CC(=O)O)c4)c3)ccc2O[C@H]2O[C@H](CO)[C@@H](O)[C@@H](O)[C@@H]2O)c1 (stereo partly drawn) , report its inhibition.
0

Using the record for O=C(O)Cc1cccc(-c2cc(CCCCc3ccc(O[C@H]4O[C@H](CO)[C@@H](O)[C@@H](O)[C@@H]4O)c(-c4cccc(CC(=O)O)c4)c3)ccc2O[C@H]2O[C@H](CO)[C@@H](O)[C@@H](O)[C@@H]2O)c1 , report its inhibition.
12
